Format: in vivo, human
RUN_CONDITIONS: female, human, plasma, oral, Cmax, least-squares mean, vortioxetine 10 mg + EE/L 30/150 μg for 21 days (test)
READOUT_KIND: Cmax (ng/mL)
// units = ng/mL; emit number, no label

GET /value?item= C#C[C@]1(O)CC[C@H]2[C@@H]3CCC4=CC(=O)CC[C@@H]4[C@H]3CC[C@@]21CC [Levonorgestrel, levonorgestrel] &field=Cmax returns 7.23

# molecule C#C[C@]1(O)CC[C@H]2[C@@H]3CCc4cc(O)ccc4[C@H]3CC[C@@]21C [Ethinyl estradiol, ethinyl estradiol] ; its Cmax = 0.0816

----------
Assay type: in vivo, human
RUN_CONDITIONS: human, plasma, 20 mg
READOUT_KIND: Cmax (ng/mL)
Numeric only. Scale: ng/mL

// sample Br.Cc1ccc(Sc2ccccc2N2CCNCC2)c(C)c1 , its Cmax was 8.92

Entry source: paper PMC3775155
